Data origin: patent US20260055118A1

- assay name: Spectroscopic properties of the target conjugates in PBS
- Format: physicochemical
metric: λem (fluorescence emission maximum) (nm)
Give bare numbers, in nm.

# annotated cases, reported λem (fluorescence emission maximum) shown
CC(OC(=O)Cc1ccccc1)c1c2ccc(=[N+]3CCCC3)cc-2oc2cc(N3CCCC3)ccc12.[I-] (centres unmarked)    592
CC(OC(=O)Oc1ccccc1)C1=C2C=CC(=[N+]3CCCC3)C=C2C(C)(C)c2cc(N3CCCC3)ccc21.[I-] (centres unmarked)    676
CC[N+]1=c2cc3c(cc2C(C)CC1(C)C)=C(C(C)OC(=O)Cc1ccccc1)c1cc2c4c(c1C3(C)C)CCCN4CCC2 (centres unmarked)    680
CC(OCc1ccccc1)C1=C2C=CC(=[N+]3CCCC3)C=C2C(C)(C)c2cc(N3CCCC3)ccc21.[I-] (centres unmarked)    659
CCc1c2c(nc3ccc(OC(=O)N(C)CCN(C)C(=O)OC(C)c4c5ccc(=[N+]6CCCC6)cc-5oc5cc(N6CCCC6)ccc45)cc13)-c1cc3c(c(=O)n1C2)COC(=O)C3(O)CC.[I-] (mixture of isomers)    594

I have 3 compounds here; please give me λem (fluorescence emission maximum) for each one.
1. CC(OC(=O)Cc1ccccc1)c1c2ccc(=O)cc-2oc2cc(N3CCCC3)ccc12 (centres unmarked)
2. CC(OC(=O)N1CCN(c2ccccc2)CC1)C1=C2C=CC(=[N+]3CCCC3)C=C2C(C)(C)c2cc(N3CCCC3)ccc21 (centres unmarked)
3. CC(OC(=O)Cc1ccccc1)C1=C2C=CC(=[N+]3CCCC3)C=C2C(C)(C)c2cc(N3CCCC3)ccc21.[I-] (centres unmarked)

Result:
[564, 673, 674]
